conditions: 308.15 K; 7000 kPa; Liquid; Vibrating tube method
± gives the expanded uncertainty stated by the source.
quantity measured: mass density

In [3]: df
Out[3]:
   structure_string          result_value
0          Cc1ccsc1  1011.27 ± 0.51 kg/m3
1       Cc1ccc(C)s1    975.91 ± 0.5 kg/m3
2           c1ccsc1   1052.99 ± 0.5 kg/m3
3          Cc1cccs1  1009.96 ± 0.52 kg/m3

----------
settings: 313.15 K; 30000 kPa; Liquid; Vibrating tube method
± gives the expanded uncertainty stated by the source.
quantity measured: mass density

>>> df
                              compound          result_value
0  Cc1ccc(C)s1 [2,5-dimethylthiophene]    988.97 ± 0.5 kg/m3
1         Cc1cccs1 [2-methylthiophene]  1023.04 ± 0.53 kg/m3
2                  c1ccsc1 [thiophene]  1066.43 ± 0.52 kg/m3
3         Cc1ccsc1 [3-methylthiophene]  1024.08 ± 0.51 kg/m3
